The following variants are shown together with reported abundance fitness values.
B1: POU domain, class 3, transcription factor 2, residues 356 to 411; numbered along this chain, P20265 (parent)
chain: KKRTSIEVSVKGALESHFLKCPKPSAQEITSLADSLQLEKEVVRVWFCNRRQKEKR

- Variants of: B1
- Experimental details: abundance fitness (aPCA) (normalised: wild type 0, dead -1); higher = more abundant; growth selection in yeast, the domain comes from the species named
- Condition context: Homo sapiens
Please state the value as a number alone, without comment.

Consider `E41N` . Its measured abundance fitness is -0.069

Consider `L14M` . Its measured abundance fitness is -0.501

Consider `I29W` . Its measured abundance fitness is -0.855
